- assayOverview: Selectivity index, ratio of CC50 for cytotoxicity against human THP-1 cells assessed as reduction in cell viability to MIC for antibacterial activity against methicillin-resistant Enterococcus faecium assessed as reduction in bacterial growth
- Type: toxicity, cell-based
- conditionContext: read-out: Selectivity Index
observedProperty: selectivity ratio

State its selectivity ratio: `O=C(O)c1cc2cc(OCc3ccc(C4CCCCC4)c(C(F)(F)F)c3)ccc2[nH]1`
> 12

====

- System: Staphylococcus aureus
- assayOverview: Antibiofilm activity against Staphylococcus aureus ATCC 25923 assessed as inhibition of biofilm viability at 100 uM incubated for 18 to 20 hrs by resazurin staining based assay
- Assay type: functional
- conditionContext: time 18-20 hrs
Collected inhibition at 100 µM values appear next to each entry.

molecule | testedSystem | inhibition at 100 µM
O=C(O)c1cc2cc(OCc3ccc(C4CCCCC4)c(C(F)(F)F)c3)ccc2[nH]1 | Staphylococcus aureus | > 90%
O=C(O)CC1CCc2c1[nH]c1ccc(OCc3ccc(OCC4CCCC4)c(C(F)(F)F)c3)cc21 (centres undefined) | Staphylococcus aureus | > 90%
O=C(O)c1cc2cc(OCc3ccc(C4CCCC4)c(C(F)(F)F)c3)ccc2[nH]1 | Staphylococcus aureus | > 90%
Cc1nc(-c2ccc(C(F)(F)F)cc2)sc1COc1ccc2[nH]c3c(c2c1)CCC3CC(=O)O (centres undefined) | Staphylococcus aureus | > 90%
O=C(O)Cc1c[nH]c2ccc(OCc3ccc(C4CCCC4)c(C(F)(F)F)c3)cc12 | Staphylococcus aureus | > 90%

# return inhibition at 100 µM for CCOC(=O)CC1CCc2c1[nH]c1ccc(OCc3ccc(C4CCCC4)c(C(F)(F)F)c3)cc21 (centres undefined) , test system: Staphylococcus aureus
> 90%

# return inhibition at 100 µM for O=C(O)CC1CCc2c1[nH]c1ccc(OCc3ccc(-c4cccs4)c(C(F)(F)F)c3)cc21 (centres undefined) , test system: Staphylococcus aureus
> 90%

# return inhibition at 100 µM for O=C(O)CC1CCCc2c1[nH]c1ccc(OCc3ccc(C4CCCC4)c(C(F)(F)F)c3)cc21 (centres undefined) , test system: Staphylococcus aureus
> 90%

# return inhibition at 100 µM for CS(=O)(=O)NC(=O)CC1CCc2c1[nH]c1ccc(OCc3ccc(C4CCCC4)c(C(F)(F)F)c3)cc21 (centres undefined) , test system: Staphylococcus aureus
> 90%

====

- assayOverview: Selectivity index, ratio of CC50 for cytotoxicity against human THP-1 cells assessed as reduction in cell viability to MIC for antibacterial activity against methicillin-resistant Staphylococcus epidermidis assessed as reduction in bacterial growth
- Format: toxicity, cell-based
- conditionContext: read-out: Selectivity Index
observedProperty: selectivity ratio

State its selectivity ratio: `O=C(O)c1cc2cc(OCc3ccc(C4CCCCC4)c(C(F)(F)F)c3)ccc2[nH]1`
> 12

====

- assayOverview: Cytotoxicity against human THP-1 cells assessed as reduction in cell viability incubated for 24 hrs by resazurin staining based analysis
- Type: toxicity
observedProperty: CC50 at 24 h (µM)
Form entry: value (µM) — number only.

State its CC50 at 24 h: `O=C(O)C[C@H]1CCc2c1[nH]c1ccc(OCc3ccc(C4CCCC4)c(C(F)(F)F)c3)cc21`
57.7

====

- assayOverview: Dissociation constant, pKa of compound
- Type: physicochemical
observedProperty: pKa
// return just the number, without any unit appended

State its pKa: O=C(O)C[C@H]1CCc2c1[nH]c1ccc(OCc3ccc(C4CCCC4)c(C(F)(F)F)c3)cc21 [ETRASIMOD]
4

====

- Tested on: Staphylococcus aureus
- assayOverview: Antibiofilm activity against Staphylococcus aureus ATCC 25923 assessed as inhibition of biofilm viability at 100 uM incubated for 18 to 20 hrs by resazurin staining based assay
- Format: functional
- conditionContext: time 18-20 hrs
Collected inhibition at 100 µM values appear next to each entry.

compound | inhibition at 100 µM
FC(F)(F)c1cc(COc2ccc3[nH]ccc3c2)ccc1C1CCCC1 | > 90%
O=C(O)Cc1c[nH]c2ccc(OCc3ccc(C4CCCCC4)c(C(F)(F)F)c3)cc12 | > 90%
NC(=O)CC1CCc2c1[nH]c1ccc(OCc3ccc(C4CCCC4)c(C(F)(F)F)c3)cc21 (stereo not given) | > 90%
O=C(O)CC1CCc2c1[nH]c1ccc(OCc3ccc(-c4ccc(Cl)s4)c(C(F)(F)F)c3)cc21 (stereo not given) | > 90%

Now consider a different compound.
State its inhibition at 100 µM: `CN[C@H](CC(C)C)C(=O)N[C@H]1C(=O)N[C@@H](CC(N)=O)C(=O)N[C@H]2C(=O)N[C@H]3C(=O)N[C@H](C(=O)N[C@H](C(=O)O)c4cc(O)cc(O)c4-c4cc3ccc4O)[C@H](O)c3ccc(c(Cl)c3)Oc3cc2cc(c3O[C@@H]2O[C@H](CO)[C@@H](O)[C@H](O)[C@H]2O[C@H]2C[C@](C)(N)[C@H](O)[C@H](C)O2)Oc2ccc(cc2Cl)[C@H]1O`
50%

====

- System: Staphylococcus aureus
- assayOverview: Antibiofilm activity against Staphylococcus aureus ATCC 25923 assessed as inhibition of biofilm viability at 100 uM incubated for 18 to 20 hrs by resazurin staining based assay
- Type: functional
- conditionContext: time 18-20 hrs
observedProperty: inhibition at 100 µM

Would you please look over these solved cases?
compound | testedSystem | inhibition at 100 µM
O=C(O)CC1CCc2c1[nH]c1ccc(OCc3cccc(C(F)(F)F)c3)cc21 (stereo not given) | Staphylococcus aureus | > 90%
O=C(O)CC1CCc2c1[nH]c1ccc(OCc3ccc(C4CCCCC4)c(OC(F)(F)F)c3)cc21 (stereo not given) | Staphylococcus aureus | > 90%

State its inhibition at 100 µM: `O=C(O)C[C@H]1CCc2c1[nH]c1ccc(OCc3ccc(C4CCCC4)c(C(F)(F)F)c3)cc21`
80%

State its inhibition at 100 µM: O=C(O)CC1CCc2c1[nH]c1ccc(OCc3ccc(C4CCCCC4)c(C(F)(F)F)c3)cc21 (stereo not given)
> 90%

State its inhibition at 100 µM: CCCCCCCCOc1ccc2[nH]c3c(c2c1)CCC3CC(=O)O (stereo not given)
> 90%

====

- assayOverview: Hemolytic activity in mouse RBC assessed as hemolysis at 250 uM incubated for 1 hr
- Format: toxicity, cell-based, Erythrocyte
- conditionContext: mouse red blood cells (erythrocytes), read-out: Activity
observedProperty: hemolysis at 1 h, 250 µM (%)
Form entry: value (%) — number only.

State its hemolysis at 1 h, 250 µM: `O=C(O)c1cc2cc(OCc3ccc(C4CCCCC4)c(C(F)(F)F)c3)ccc2[nH]1`
100

State its hemolysis at 1 h, 250 µM: `O=C(O)C[C@H]1CCc2c1[nH]c1ccc(OCc3ccc(C4CCCC4)c(C(F)(F)F)c3)cc21`
100

====

- System: Enterococcus faecalis
- assayOverview: Antibacterial activity against vancomycin-resistant Enterococcus faecalis ATCC 51575 assessed as reduction in bacterial growth incubated for 18 to 20 hrs by broth microdilution assay
- Assay type: functional
- conditionContext: time 18-20 hrs
observedProperty: MIC (µM)
Form entry: value (µM) — number only.

compound | number
O=C(O)c1cc2cc(OCc3ccc(C4CCCC4)c(C(F)(F)F)c3)ccc2[nH]1 | 10
CS(=O)(=O)NC(=O)CC1CCc2c1[nH]c1ccc(OCc3ccc(C4CCCC4)c(C(F)(F)F)c3)cc21 (centres undefined) | 5

Now consider a different compound.
State its MIC: O=C(O)CC1CCc2c1[nH]c1ccc(OCc3ccc(C4CCCCC4)c(OC(F)(F)F)c3)cc21 (centres undefined)
5

====

- assayOverview: Selectivity index, ratio of CC50 for cytotoxicity against human THP-1 cells assessed as reduction in cell viability to MIC for antibacterial activity against methicillin-resistant Staphylococcus aureus assessed as reduction in bacterial growth
- Format: toxicity, cell-based
- conditionContext: read-out: Selectivity Index
observedProperty: selectivity ratio

State its selectivity ratio: `O=C(O)c1cc2cc(OCc3ccc(C4CCCCC4)c(C(F)(F)F)c3)ccc2[nH]1`
> 12

====

Collected MIC values appear next to each entry.
- System: Enterococcus faecalis
- assayOverview: Antibacterial activity against vancomycin-resistant Enterococcus faecalis ATCC 51575 assessed as reduction in bacterial growth incubated for 18 to 20 hrs by broth microdilution assay
- Assay type: functional
- conditionContext: time 18-20 hrs
Form entry: value (µM) — number only.

smilesEntry | MIC (µM)
O=C(O)Cc1c[nH]c2ccc(OCc3ccc(C4CCCCC4)c(C(F)(F)F)c3)cc12 | 20

Now consider a different molecule.
# return MIC for `CN[C@H](CC(C)C)C(=O)N[C@H]1C(=O)N[C@@H](CC(N)=O)C(=O)N[C@H]2C(=O)N[C@H]3C(=O)N[C@H](C(=O)N[C@H](C(=O)O)c4cc(O)cc(O)c4-c4cc3ccc4O)[C@H](O)c3ccc(c(Cl)c3)Oc3cc2cc(c3O[C@@H]2O[C@H](CO)[C@@H](O)[C@H](O)[C@H]2O[C@H]2C[C@](C)(N)[C@H](O)[C@H](C)O2)Oc2ccc(cc2Cl)[C@H]1O` , test system: Enterococcus faecalis
40
